# credit: PubChem BioAssay (NCI)

Listed here: items and their measured TGI.
# Test system: EKVX NSCLC
# assay method text: NCI tumour cell line growth inhibition, 48 h

Task item: Identify measured TGI corresponding to CC(C)=CC1CCc2ccccc2N1S(=O)(=O)c1ccc(C)cc1 (stereo not given)
Reply: > 100 µM

Task item: Identify measured TGI corresponding to CC1(C)C(OC(=O)c2ccccc2)C[C@]23CCC[C@](C)(C[C@@H](O)C12)C3 (stereo not given in full)
Reply: 36.8 µM

Task item: Identify measured TGI corresponding to CCN(CC)c1ccc(/C=C2\SC(=O)C(Nc3nnc(-c4cccnc4SCc4ccccc4)o3)C2=O)cc1 (stereo not given)
Reply: > 100 µM

Task item: Identify measured TGI corresponding to Cc1ccc2c(c1)C(=O)c1[nH]c3ccc(F)cc3c1CO2
Reply: > 100 µM

New cases:
Task item: Identify measured TGI corresponding to O=C(CON1C(=O)c2ccccc2C1=O)c1ccccc1
Reply: > 100 µM
